Biological target: GST-tagged human ROCK2 catalytic domain 1-553 (Homo sapiens (Human), UniProt O75116)
Sequence (O75116 1-553): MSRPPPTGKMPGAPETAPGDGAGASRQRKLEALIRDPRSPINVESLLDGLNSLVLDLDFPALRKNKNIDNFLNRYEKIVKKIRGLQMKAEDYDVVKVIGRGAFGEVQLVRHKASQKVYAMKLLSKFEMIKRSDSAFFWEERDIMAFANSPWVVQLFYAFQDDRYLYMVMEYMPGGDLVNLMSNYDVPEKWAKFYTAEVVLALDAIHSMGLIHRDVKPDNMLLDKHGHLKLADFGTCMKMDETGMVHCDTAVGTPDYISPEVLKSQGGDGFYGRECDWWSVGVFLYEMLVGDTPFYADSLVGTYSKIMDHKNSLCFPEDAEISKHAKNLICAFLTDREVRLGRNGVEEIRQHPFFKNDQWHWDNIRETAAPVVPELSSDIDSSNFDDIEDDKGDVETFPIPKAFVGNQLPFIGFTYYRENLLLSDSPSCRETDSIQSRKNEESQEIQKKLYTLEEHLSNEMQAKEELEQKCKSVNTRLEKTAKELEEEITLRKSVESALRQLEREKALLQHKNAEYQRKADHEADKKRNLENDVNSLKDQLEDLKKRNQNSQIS
Experiment: Inhibition of Rho-associated protein kinase isoform 2 (LANCE Ultra ULight-CREBtide FRET kinase assay)
Format: biochemical
Conditions: 30 μM was the highest concentration analyzed
Experimental: Exemplary compounds were tested for ability to inhibit Rho-associated protein kinase isoform 1 (ROCK1) and Rho-associated protein kinase isoform 2 (ROCK2). Assay procedures and results are described below. Protein constructs were purified from a baculovirus expression system. The peptide substrate was fluorescent LANCE® Ultra ULight-CREBtide: […] […] The flurorescence resonance energy transfer (FRET) signals were read and analyzed on an Envision™ 2103 Multilabel Reader (Perkin Elmer).
Quick list: IC50 per entry.

Field: example entries. Status: answers known.
CC(=O)Oc1cccc(-c2nnc(Nc3ccc4[nH]ncc4c3Cl)s2)c1 [Example 35AG]; < 1 µM
c1cc(-c2cn[nH]c2)cc(-c2nnc(Nc3ccc4[nH]ncc4c3)s2)c1; < 1 µM
O=C(O)C(F)(F)F.O=C(O)CS(=O)(=O)Nc1cccc(-c2nnc(Nc3ccc4[nH]ncc4c3)s2)c1 [Example 35CD]; 1 to 15 µM
O=C(Cc1cccc(C(F)(F)F)n1)Nc1cccc(-c2nnc(Nc3ccc4[nH]ncc4c3Cl)s2)c1 [Example 35AI]; < 1 µM
CC(=O)Nc1cc(F)c(F)c(-c2nnc(Nc3ccc4[nH]ncc4c3Cl)s2)c1.O=C(O)C(F)(F)F [Example 35BB]; < 1 µM
CC(=O)Nc1cc(CC(=O)O)cc(-c2nnc(Nc3ccc4[nH]ncc4c3Cl)s2)c1 [Example 75S]; < 1 µM
Clc1c(Nc2nnc(-c3cccn4cc(C5CCCN5)nc34)s2)ccc2[nH]ncc12 (centres unmarked) [Example 50G]; < 1 µM

Prompt line: Looking for the measured IC50 of CS(=O)(=O)Nc1cncc(-c2nnc(Nc3ccc4[nH]ncc4c3)s2)c1 , can you help?
Response line: 1 to 15 µM

###

IC50 overview
target: GST-tagged human ROCK1 catalytic domain 1-477 (Homo sapiens (Human)); assay: Inhibition of Rho-associated protein kinase isoform 1 (LANCE Ultra ULight-CREBtide FRET kinase assay); assay type: biochemical; details: 30 μM was the highest concentration analyzed
Sequence (Q13464 1-477): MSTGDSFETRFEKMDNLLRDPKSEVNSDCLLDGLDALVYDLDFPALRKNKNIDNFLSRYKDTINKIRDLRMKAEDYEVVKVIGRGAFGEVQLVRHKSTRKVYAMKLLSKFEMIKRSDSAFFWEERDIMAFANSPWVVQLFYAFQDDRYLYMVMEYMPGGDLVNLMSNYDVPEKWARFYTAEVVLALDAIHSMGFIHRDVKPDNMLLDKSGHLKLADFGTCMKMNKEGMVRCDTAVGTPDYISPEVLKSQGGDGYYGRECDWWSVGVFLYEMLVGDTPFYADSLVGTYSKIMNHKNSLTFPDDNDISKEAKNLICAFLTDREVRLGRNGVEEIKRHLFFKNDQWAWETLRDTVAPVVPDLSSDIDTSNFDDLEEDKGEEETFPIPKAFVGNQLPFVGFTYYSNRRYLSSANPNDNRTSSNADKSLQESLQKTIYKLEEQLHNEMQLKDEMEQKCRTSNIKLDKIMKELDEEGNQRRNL

Clc1c(Nc2nnc(-c3cccc(-c4nccs4)c3)s2)ccc2[nH]ncc12 [Example 46I]; > 30 µM
O=C(Cc1ccc(F)cc1)Nc1cc(-c2nnc(Nc3ccc4[nH]ncc4c3Cl)s2)ccn1 [Example 35G]; < 1 µM
NC(Cc1ccc(Cl)cc1)C(=O)Nc1cccc(-c2nnc(Nc3ccc4[nH]ncc4c3Cl)s2)c1 (centres unmarked) [Example 35BF]; 1 to 15 µM
Nc1cncc(-c2nnc(Nc3ccc4[nH]ncc4c3)s2)n1; > 30 µM
Cn1cnc2c(-c3nnc(Nc4ccc5[nH]ncc5c4)s3)cccc21; < 1 µM

Shifting focus to the compound that follows.
Prompt line: Bench note: what IC50 did CC(C)(CO)NC(=O)c1cccc(-c2nnc(Nc3ccc4[nH]ncc4c3Cl)s2)c1 [Example 35AR] show?
Response line: 1 to 15 µM

###

target: GST-tagged human ROCK1 catalytic domain 1-477 (Homo sapiens (Human)); test: Inhibition of Rho-associated protein kinase isoform 1 (LANCE Ultra ULight-CREBtide FRET kinase assay); type: biochemical; conditions: 30 μM was the highest concentration analyzed
Measured IC50 values are reported for all entries that follow.

Consider the worked cases shown below.
CC(C)C[C@H](N)C(=O)Nc1cccc(-c2nnc(Nc3ccc4[nH]ncc4c3Cl)s2)c1 [Example 35BA]; < 1 µM
CC(=O)Nc1ccc(C)c(-c2nnc(Nc3ccc4[nH]ncc4c3Cl)s2)c1.O=C(O)C(F)(F)F [Example 48I]; < 1 µM
Cn1cc(CC(=O)Nc2cc(-c3nnc(Nc4ccc5[nH]ncc5c4Cl)s3)ccn2)cn1; < 1 µM

Please turn your attention to the following entry.
Prompt line: Given the entry O=C(Nc1cncc(-c2nnc(Nc3ccc4[nH]ncc4c3)s2)c1)c1c[nH]cn1 , report its measured IC50.
Response line: > 30 µM

The reported numbers originate from patent US10112935B2.
